assay: Protein binding in dog plasma at 0.5 mg/kg, iv or 1 mg/kg, po; assay type: ADME, organism-based, Canis lupus familiaris; conditions: read-out: PPB (converted)
Metric: fraction unbound
Keep the answer to the number alone.

Input line: Would you kindly share the measured fraction unbound for C[C@@H]1C[C@H]1C(=O)N1CCN(c2cnc(C#N)c(-c3cnn(C)c3)n2)C[C@H]1C ?
Output line: 0.213

====

target: Tyrosine-protein kinase Fer (Homo sapiens); assay: Inhibition of recombinant GST-tagged human FER (541 to 822 residues) cytoplasmic domain expressed in baculovirus expression system using Tyr 05 peptide as substrate after 1 hr in presence of ATP by Z'-LYTE assay
Sequence (P16591 whole entry, the tested form may be a part): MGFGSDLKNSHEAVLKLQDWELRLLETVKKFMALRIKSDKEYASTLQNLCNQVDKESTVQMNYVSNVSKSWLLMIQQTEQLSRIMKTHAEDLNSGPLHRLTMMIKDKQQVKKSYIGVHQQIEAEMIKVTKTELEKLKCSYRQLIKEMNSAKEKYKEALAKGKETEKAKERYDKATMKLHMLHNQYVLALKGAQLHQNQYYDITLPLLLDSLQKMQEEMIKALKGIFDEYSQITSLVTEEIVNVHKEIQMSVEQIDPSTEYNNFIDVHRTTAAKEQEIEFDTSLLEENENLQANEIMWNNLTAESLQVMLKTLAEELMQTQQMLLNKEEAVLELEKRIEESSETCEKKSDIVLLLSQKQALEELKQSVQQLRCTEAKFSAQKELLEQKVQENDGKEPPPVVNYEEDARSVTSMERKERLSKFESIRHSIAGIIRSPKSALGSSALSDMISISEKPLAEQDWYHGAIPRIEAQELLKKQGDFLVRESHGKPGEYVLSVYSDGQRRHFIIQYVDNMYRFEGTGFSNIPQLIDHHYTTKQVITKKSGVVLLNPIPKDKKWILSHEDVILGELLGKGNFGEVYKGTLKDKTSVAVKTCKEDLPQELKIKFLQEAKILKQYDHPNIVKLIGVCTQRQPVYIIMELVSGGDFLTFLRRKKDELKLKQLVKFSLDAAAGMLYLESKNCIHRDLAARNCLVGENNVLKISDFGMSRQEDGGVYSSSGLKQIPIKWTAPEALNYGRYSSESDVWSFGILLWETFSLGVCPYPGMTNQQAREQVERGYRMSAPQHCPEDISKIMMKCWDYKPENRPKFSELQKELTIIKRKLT
pIC50: −log10 of the molar value.
Metric: pIC50

Input line: Would you kindly share the measured pIC50 for C[C@@H]1C[C@H]1C(=O)N1CCN(c2cnc(C#N)c(-c3cnn(C)c3)n2)C[C@H]1C ?
Output line: < 4.00

====

target: Mitogen-activated protein kinase kinase kinase kinase 2 (Homo sapiens, UniProt Q12851); assay: Inhibition of recombinant full length human HIs-tagged MAP4K2 expressed in baculovirus expression system using serine/threonine-7 peptide as substrate incubated for 60 mins in presence of ATP by Z'-LYTE assay
Sequence (Q12851 whole entry): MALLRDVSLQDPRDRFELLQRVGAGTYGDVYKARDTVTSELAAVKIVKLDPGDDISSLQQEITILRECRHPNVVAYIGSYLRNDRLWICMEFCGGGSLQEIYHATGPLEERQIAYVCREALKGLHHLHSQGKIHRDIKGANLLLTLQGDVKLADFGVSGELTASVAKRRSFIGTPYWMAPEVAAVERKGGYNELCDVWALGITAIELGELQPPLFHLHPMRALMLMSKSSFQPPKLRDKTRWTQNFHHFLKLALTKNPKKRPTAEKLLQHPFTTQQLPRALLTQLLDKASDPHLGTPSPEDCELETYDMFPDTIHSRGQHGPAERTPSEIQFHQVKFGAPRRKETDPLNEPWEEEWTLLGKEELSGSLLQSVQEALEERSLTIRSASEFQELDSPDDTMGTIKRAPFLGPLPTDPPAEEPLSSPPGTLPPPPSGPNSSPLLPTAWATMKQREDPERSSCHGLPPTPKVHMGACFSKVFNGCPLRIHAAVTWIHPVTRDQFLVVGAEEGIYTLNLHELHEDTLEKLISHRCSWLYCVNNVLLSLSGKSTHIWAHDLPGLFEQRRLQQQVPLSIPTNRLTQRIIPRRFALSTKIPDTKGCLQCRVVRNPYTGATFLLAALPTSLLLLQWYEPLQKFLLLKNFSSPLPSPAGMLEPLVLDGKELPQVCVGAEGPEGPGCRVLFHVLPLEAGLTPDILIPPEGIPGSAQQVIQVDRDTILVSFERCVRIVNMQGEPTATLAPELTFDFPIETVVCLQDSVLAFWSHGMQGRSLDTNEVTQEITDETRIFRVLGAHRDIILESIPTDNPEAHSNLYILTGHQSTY
Metric: IC50

Input line: Would you kindly share the measured IC50 for C[C@@H]1C[C@H]1C(=O)N1CCN(c2cnc(C#N)c(-c3cnn(C)c3)n2)C[C@H]1C ?
Output line: > 100 µM

====

Biological target: Beta-adrenergic receptor kinase 1 (Homo sapiens, UniProt P25098)
Sequence (P25098 whole entry): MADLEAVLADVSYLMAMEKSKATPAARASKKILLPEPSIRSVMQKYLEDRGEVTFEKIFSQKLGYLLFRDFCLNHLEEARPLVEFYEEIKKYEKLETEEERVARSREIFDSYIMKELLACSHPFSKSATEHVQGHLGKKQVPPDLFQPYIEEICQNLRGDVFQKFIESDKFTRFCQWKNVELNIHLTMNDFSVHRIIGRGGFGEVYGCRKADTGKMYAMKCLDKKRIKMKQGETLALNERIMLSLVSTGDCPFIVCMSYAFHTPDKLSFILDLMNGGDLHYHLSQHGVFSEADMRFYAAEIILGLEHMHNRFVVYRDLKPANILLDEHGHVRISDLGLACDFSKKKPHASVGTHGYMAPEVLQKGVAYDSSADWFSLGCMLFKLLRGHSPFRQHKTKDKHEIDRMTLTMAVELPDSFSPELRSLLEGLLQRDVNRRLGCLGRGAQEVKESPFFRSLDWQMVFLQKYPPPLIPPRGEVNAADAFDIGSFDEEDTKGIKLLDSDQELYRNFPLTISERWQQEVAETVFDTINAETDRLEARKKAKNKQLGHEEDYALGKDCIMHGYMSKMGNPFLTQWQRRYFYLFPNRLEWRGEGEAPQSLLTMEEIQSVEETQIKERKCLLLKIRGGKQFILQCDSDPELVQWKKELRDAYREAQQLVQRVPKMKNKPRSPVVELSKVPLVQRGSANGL
Assay: Inhibition of recombinant full length human His-tagged GRK2 expressed in baculovirus expression system using serine/threonine-16 peptide as substrate incubated for 60 mins in presence of ATP by Z'-LYTE assay
Metric: IC50

Input line: Would you kindly share the measured IC50 for C[C@@H]1C[C@H]1C(=O)N1CCN(c2cnc(C#N)c(-c3cnn(C)c3)n2)C[C@H]1C ?
Output line: > 100 µM

====

molecular target: Serine/threonine-protein kinase PLK2 (Homo sapiens, UniProt Q9NYY3); assay: Inhibition of recombinant full length human GST-tagged PLK2 expressed in baculovirus expression system using serine/threonine-16 peptide as substrate incubated for 60 mins in presence of ATP by Z'-LYTE assay
Sequence (Q9NYY3 whole entry): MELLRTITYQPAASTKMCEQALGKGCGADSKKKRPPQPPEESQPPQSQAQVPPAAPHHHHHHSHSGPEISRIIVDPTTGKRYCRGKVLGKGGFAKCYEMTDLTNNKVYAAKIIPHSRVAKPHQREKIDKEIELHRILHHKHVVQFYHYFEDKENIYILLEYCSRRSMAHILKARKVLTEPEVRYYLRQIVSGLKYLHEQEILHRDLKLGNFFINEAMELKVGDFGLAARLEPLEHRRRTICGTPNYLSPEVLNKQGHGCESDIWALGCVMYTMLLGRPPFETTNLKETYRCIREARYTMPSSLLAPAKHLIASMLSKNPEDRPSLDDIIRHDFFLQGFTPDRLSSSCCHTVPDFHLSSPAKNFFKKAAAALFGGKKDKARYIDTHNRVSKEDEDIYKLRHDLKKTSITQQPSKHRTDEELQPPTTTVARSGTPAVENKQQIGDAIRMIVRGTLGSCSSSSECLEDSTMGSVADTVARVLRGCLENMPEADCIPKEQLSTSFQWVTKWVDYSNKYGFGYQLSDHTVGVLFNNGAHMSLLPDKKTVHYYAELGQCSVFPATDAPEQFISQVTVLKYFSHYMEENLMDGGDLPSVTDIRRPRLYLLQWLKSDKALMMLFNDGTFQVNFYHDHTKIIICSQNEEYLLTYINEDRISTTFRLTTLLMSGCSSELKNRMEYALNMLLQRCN
Metric: IC50

Input line: Would you kindly share the measured IC50 for C[C@@H]1C[C@H]1C(=O)N1CCN(c2cnc(C#N)c(-c3cnn(C)c3)n2)C[C@H]1C ?
Output line: > 100 µM
